The measured values listed here are drawn from the Human Domainome abundance scans (Beltran et al. 2025).

B1: Gamma-crystallin C, residues 4 to 79; numbered along this chain, P07315 (parent)
chain: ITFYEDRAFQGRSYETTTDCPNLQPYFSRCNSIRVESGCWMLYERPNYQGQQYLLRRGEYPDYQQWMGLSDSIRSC

variants of: B1; test: abundance fitness (aPCA) (normalised: wild type 0, dead -1); higher = more abundant; growth selection in yeast, the domain comes from the species named; conditions: Homo sapiens
assay-endpoint: abundance fitness
The response must contain the number and no unit.

[[record]]
variant_code = "G11H"
assay_endpoint = "abundance fitness"
observed_result = -0.49

[[record]]
variant_code = "D71L"
assay_endpoint = "abundance fitness"
observed_result = 0.021

[[record]]
variant_code = "G58Q"
assay_endpoint = "abundance fitness"
observed_result = -0.166

[[record]]
variant_code = "A8E"
assay_endpoint = "abundance fitness"
observed_result = 0.103

[[record]]
variant_code = "V35P"
assay_endpoint = "abundance fitness"
observed_result = -1.03


input: Name the reported abundance fitness value associated with the variant G68K
output: 0.028

input: Next entry: R12L
output: -0.034

input: Next entry: C39M
output: -0.027

input: Next entry: Q49R
output: -0.07

input: Next entry: S72R
output: 0.01
